Data provenance: patent US10544153B2

# %-Cmax of OC per record follows
Test: Oral PK in rats: plasma concentrations of oxymorphone by LC-MS/MS
Settings: oxymorphone released, relative to oxycodone (OC)
Experimental Endpoint: %-Cmax of OC (%)

>>> df
                                   compound  observed
0  COc1ccc2c3c1O[C@H]1C(OC(=O)c4cccc(N)c4)=CC[C@@]4(O)[C@@H](C2)N(C)CC[C@]314 [Conjugate 3-ABz-OC]        49
1  COc1ccc2c3c1OC1C(OC(=O)C(C)c4cccc(C(=O)c5ccccc5)c4)=CCC4(O)C(C2)N(C)CCC314 (mixture of isomers)        77
2  COc1ccc2c3c1OC1C(OC(=O)C(C)c4ccc(CC(C)C)cc4)=CCC4(O)C(C2)N(C)CCC314 (mixture of isomers) [Conjugate 6-lbu-OC]        59
3  COc1ccc2c3c1O[C@H]1C(OC(=O)/C=C/c4ccccc4)=CC[C@@]4(O)[C@@H](C2)N(C)CC[C@]314 [6-Cinnamate-OC]        68
